# System: Escherichia coli TOP10;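 note: peptides expressed intracellularly from a pBAD plasmid library in pooled LB shake-flask culture, induced with 0.3% L-arabinose, DNA abundance read by NGS, three biological replicates, DESeq2 with apeglm shrinkage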
# protocolDetails: shrunken log2 fold change of peptide-encoding DNA abundance (4.5 h post-induction vs induction); higher = less antimicrobial activity (less host growth inhibition)
# conditionInfo: time post-induction: 4.5 h; library: site-saturation at positions 5, 18, 19, 20
Listed below: shrunken log2 fold change values for each entry.
Keep it simple and answer with nothing but the number.

A selection of reference data follows.
RRIRVRPPRLPRPRPRPVKEPRP 0.629
RRIRRRPPRLPRPRPRPNWQPRP 0.00842
RRIRARPPRLPRPRPRPCKHPRP -0.116
RRIRKRPPRLPRPRPRPCVIPRP 0.0227
RRIRWRPPRLPRPRPRPCSNPRP -0.0711

Quick check: shrunken log2 fold change of "RRIRSRPPRLPRPRPRPPCNPRP" ?
-0.21

Quick check: shrunken log2 fold change of "RRIRERPPRLPRPRPRPSQKPRP" ?
0.0497

Quick check: shrunken log2 fold change of "RRIRDRPPRLPRPRPRPALQPRP" ?
0.671
